Values from ChEMBL document CHEMBL4052807

So I've got a bunch of compounds here, and I need their Papp values.
# assay: Passive permeability in MDCK cells expressing human MDR1
# Assay type: ADME, cell-based, Canis lupus familiaris
# assay.setup: dog, read-out: permeability

# annotated cases, reported Papp shown
[[record]]
structure_string = "O=C(Nc1cccnc1)c1cc(-c2ccnc(F)c2)ccc1OCc1ccccc1"
reported_result = "> 10 ×10⁻⁶ cm/s"

[[record]]
structure_string = "O=C(Nc1cccnc1)c1cc(C(F)(F)F)ccc1OCc1ccc(F)cc1"
reported_result = "> 10 ×10⁻⁶ cm/s"


Here is the next item to consider.
The reported Papp of the compound Cn1cc(-c2ccc(OCc3ccc(F)cc3)c(C(=O)Nc3cccnc3)c2)cn1 was > 10 ×10⁻⁶ cm/s

###

# assay: Protein binding in mouse brain
# Assay type: ADME, tissue-based
# assay.setup: read-out: PB (converted)
property.name: fraction unbound
Give bare numbers.

[[record]]
structure_string = "O=C(Nc1cccnc1)c1cc(-c2ccnc(F)c2)ccc1OCc1ccccc1"
reported_result = 0.003


Then there is this compound:
# fraction unbound of O=C(Nc1cccnc1)c1cc(C(F)(F)F)ccc1OCc1ccc(F)cc1 = 0.004

###

# assay: Volume of distribution at steady state in Swiss albino mouse at 1 mg/kg, iv or 2 mg/kg, po
# Format: ADME, organism-based
# assay.setup: in vivo, read-out: Vdss
property.name: Vd (L/kg)
Numbers only, in L/kg.

[[record]]
structure_string = "O=C(Nc1cccnc1)c1cc(C(F)(F)F)ccc1OCc1ccc(F)cc1"
property_name = "Vd"
unit_string = "L/kg"
reported_result = 2.7


Entry under test: Cn1cc(-c2ccc(OCc3ccc(F)cc3)c(C(=O)Nc3cccnc3)c2)cn1 . Its Vd was 1.6
